Molecular target: Gonadotropin-releasing hormone receptor (Rattus norvegicus)
Sequence (P30969 whole entry): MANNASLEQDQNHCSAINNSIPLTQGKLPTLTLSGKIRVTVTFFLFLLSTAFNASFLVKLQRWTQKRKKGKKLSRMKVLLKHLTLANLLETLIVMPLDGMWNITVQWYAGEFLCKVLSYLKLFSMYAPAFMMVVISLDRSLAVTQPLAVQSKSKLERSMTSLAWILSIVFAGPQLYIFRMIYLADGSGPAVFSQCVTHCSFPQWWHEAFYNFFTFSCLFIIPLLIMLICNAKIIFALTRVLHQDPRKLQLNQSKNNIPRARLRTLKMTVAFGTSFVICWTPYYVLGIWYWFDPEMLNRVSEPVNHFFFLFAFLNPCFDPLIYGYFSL
Assay: Inhibition of binding of radiolabeled histrelin to Gonadotropin-releasing hormone receptor (GnRHr) in rat pituitary gland membranes
Give measured IC50 for each item. Keep answers brief.
Give bare numbers, in nM.

>  <compound>
CC(=O)Nc1ccc(C[C@H](NC(=O)[C@H](CO)NC(=O)[C@H](NC(=O)c2cccnc2)NC(=O)[C@@H](Cc2ccc(Cl)cc2)NC(=O)[C@@H](Cc2ccc3ccccc3c2)NC(C)=O)C(=O)N[C@H](Cc2ccc(NC(C)=O)cc2)C(=O)N[C@@H](CC(C)C)C(=O)N[C@@H](CCCCNC(C)C)C(=O)N2CCC[C@H]2C(=O)N[C@H](C)C(N)=O)cc1

>  <display.unit>
nM

>  <IC50>
0.76

$$$$

Ask | Any idea what IC50 was measured for CC(=O)Nc1ccc(C[C@H](NC(=O)[C@H](CO)NC(=O)[C@@H](Cc2cccnc2)NC(=O)[C@@H](Cc2ccc(Cl)cc2)NC(=O)[C@@H](Cc2ccc3ccccc3c2)NC(C)=O)C(=O)N[C@H](Cc2ccc(NC(C)=O)cc2)C(=O)N[C@@H](CC(C)C)C(=O)N[C@@H](CCCCNC(C)C)C(=O)N2CCC[C@H]2C(=O)N[C@@H](NC=O)C(N)=O)cc1 (single isomer, unassigned) ?
Reply | 0.62

----------
Give measured IC50 for each item. Keep answers brief.
Biological target: Gonadotropin-releasing hormone receptor (Rattus norvegicus)
Sequence (P30969 whole entry): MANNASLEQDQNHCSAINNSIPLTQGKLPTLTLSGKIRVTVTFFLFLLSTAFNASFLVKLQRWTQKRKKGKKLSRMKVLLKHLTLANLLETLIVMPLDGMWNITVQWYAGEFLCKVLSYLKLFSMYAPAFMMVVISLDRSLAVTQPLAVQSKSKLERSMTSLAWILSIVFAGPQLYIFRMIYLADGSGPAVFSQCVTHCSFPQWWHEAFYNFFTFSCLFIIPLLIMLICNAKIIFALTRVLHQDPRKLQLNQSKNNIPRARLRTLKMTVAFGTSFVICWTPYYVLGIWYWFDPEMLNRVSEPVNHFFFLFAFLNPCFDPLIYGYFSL
Assay: Inhibition of binding of radiolabeled histrelin to Gonadotropin-releasing hormone receptor (GnRHr) in rat pituitary gland membranes
Format: cell membranes, Membrane
Numbers only, in nM.

>  <molecule>
CC(=O)Nc1ccc(C[C@H](NC(=O)[C@H](CO)NC(=O)[C@H](Cc2cccnc2)NC(=O)[C@@H](Cc2ccc(Cl)cc2)NC(=O)[C@@H](Cc2ccc3ccccc3c2)NC(C)=O)C(=O)N[C@H](Cc2ccc(NC(C)=O)cc2)C(=O)N[C@@H](CC(C)C)C(=O)N[C@@H](CCCCNC(C)C)C(=O)N2CCC[C@H]2C(=O)N[C@H](C)C(N)=O)cc1

>  <display.unit>
nM

>  <IC50>
0.23

$$$$
>  <molecule>
CC(=O)Nc1ccc(C[C@H](NC(=O)[C@H](CO)NC(=O)[C@@H](NC(=O)c2cccnc2)NC(=O)[C@@H](Cc2ccc(Cl)cc2)NC(=O)[C@@H](Cc2ccc3ccccc3c2)NC(C)=O)C(=O)N[C@H](Cc2ccc(NC(C)=O)cc2)C(=O)N[C@@H](CC(C)C)C(=O)N[C@@H](CCCCNC(C)C)C(=O)N2CCC[C@H]2C(=O)N[C@H](C)C(N)=O)cc1

>  <display.unit>
nM

>  <IC50>
0.63

$$$$

Give IC50 for each listed item.
1. CC(=O)Nc1ccc(C[C@H](NC(=O)[C@H](CO)NC(=O)[C@@H](Cc2cccnc2)NC(=O)[C@@H](Cc2ccc(Cl)cc2)NC(=O)[C@@H](Cc2ccc3ccccc3c2)NC(C)=O)C(=O)N[C@H](Cc2ccc(NC(C)=O)cc2)C(=O)N[C@@H](CC(C)C)C(=O)N[C@@H](CCCCNC(C)C)C(=O)N2CCC[C@H]2C(=O)N[C@H](C)C(N)=O)cc1
2. CC(=O)Nc1ccc(C[C@H](NC(=O)[C@H](CO)NC(=O)[C@@H](Cc2cccnc2)NC(=O)[C@@H](NC(=O)c2cnccn2)NC(=O)[C@@H](Cc2ccc3ccccc3c2)NC(C)=O)C(=O)N[C@H](Cc2ccc(NC(C)=O)cc2)C(=O)N[C@@H](CC(C)C)C(=O)N[C@@H](CCCCNC(C)C)C(=O)N2CCC[C@H]2C(=O)N[C@H](C)C(N)=O)cc1
3. CC(=O)Nc1ccc(C[C@H](NC(=O)[C@H](CO)NC(=O)[C@@H](NC(=O)[C@@H](Cc2ccc(Cl)cc2)NC(=O)[C@@H](Cc2ccc3ccccc3c2)NC(C)=O)N(C)C(=O)c2cccnc2)C(=O)N[C@H](Cc2ccc(NC(C)=O)cc2)C(=O)N[C@@H](CC(C)C)C(=O)N[C@@H](CCCCNC(C)C)C(=O)N2CCC[C@H]2C(=O)N[C@H](C)C(N)=O)cc1 (single isomer, unassigned)
4. CC(=O)Nc1ccc(C[C@H](NC(=O)[C@H](CO)NC(=O)[C@@H](Cc2cccnc2)NC(=O)[C@@H](Cc2ccc(Cl)cc2)NC(=O)[C@@H](Cc2ccc3ccccc3c2)NC(C)=O)C(=O)N[C@H](Cc2ccc(NC(C)=O)cc2)C(=O)N[C@@H](CC(C)C)C(=O)N[C@@H](C(=O)N2CCC[C@H]2C(=O)N[C@H](C)C(N)=O)N(C)C(=O)CCNC(C)C)cc1 (single isomer, unassigned)

Reply |
0.3
2000
36
2.4
